Data origin: paper PMC6630837

# Tested on: SH-SY5Y neuroblastoma cells
# experiment description: Cytotoxic activity of compounds alone, MTT cell viability assay
# experimental context: 50 μM compound alone, 24 h, 37 °C, 0.5% DMSO, SH-SY5Y
measurement name: MTT reduction (% control)
Output should be the measured figure followed by the unit it is expressed in.

{"compound": "O=c1cc(C2CCC2)oc2cc(O)cc(O)c12", "MTT reduction (% control)": "184.6 ± 30.2%"}
{"compound": "O=c1cc(-c2ccc(N3CCOCC3)cc2)oc2cc(O)cc(O)c12 [Compound 8, 5,7-Dihydroxy-4′-(morpholin-4-yl)flavone]", "MTT reduction (% control)": "57.6 ± 25.5%"}
{"compound": "O=c1cc(-c2ccccc2)oc2cc(O)cc(O)c12 [Compound 1, chrysin, reference compound]", "MTT reduction (% control)": "96.2 ± 26.9%"}

Kindly consider the entry below.
Qu. Could you share which MTT reduction (% control) value was measured for `O=c1cc(-c2ccncc2)oc2cc(O)cc(O)c12` ?
Ans. 233.7 ± 15.7%
